All figures here come from patent US20180258158A1.

ASSAY TARGET: T1, mouse serum albumin (MSA), full length (mouse, UniProt P07724 25-608)
T1 construct: mature; Immobilized on CM5 chip (SPR) or coated on plates (ELISA); also called mouse albumin; murine serum albumin
TEST: SPR off-rate ratio to parent ADX_7016_A01, MSA, 25 C
MEASUREMENT NAME: MSA kd/Parent kd

BINDER | OBS VALUE
ADX_6727_D01 (K85T) (designed binder, Full His6-tagged entry) MGVSDVPRDLEVVAATPTSLLISWDAPAVTVRYYRITYGREVQKYSDLGPLYIYQEFTVPGSKSTATISGLKPGVDYTITVYAVTGSGESPASSTPISINYRTEIDKPSQHHHHHH | 1
ADX_6727_F03 (I43Y as printed in Table 4; I43A in Table 7) (designed binder, Full His6-tagged entry) MGVSDVPRDLEVVAATPTSLLISWDAPAVTVRYYRITYGREVQKYSDLGPLYAYQEFTVPGSKSTATISGLKPGVDYTITVYAVTGSGESPASSKPISINYRTEIDKPSQHHHHHH | 8.9
ADX_6727_H02 (I43S) (designed binder, Full His6-tagged entry) MGVSDVPRDLEVVAATPTSLLISWDAPAVTVRYYRITYGREVQKYSDLGPLYSYQEFTVPGSKSTATISGLKPGVDYTITVYAVTGSGESPASSKPISINYRTEIDKPSQHHHHHH | 22.8
ADX_6727_C07 (R30A/K85S) (designed binder, Full His6-tagged entry) MGVSDVPRDLEVVAATPTSLLISWDAPAVTVRYYRITYGAEVQKYSDLGPLYIYQEFTVPGSKSTATISGLKPGVDYTITVYAVTGSGESPASSSPISINYRTEIDKPSQHHHHHH | 7.8
